// provenance: patent US20200397795A1

procedure summary: MAGELLAN (Study 1): pharmacokinetics
Assay type: in vivo, human
settings: human, plasma, oral, 10 mg, Day 1, overall; 10 mg
measure: AUC (ng·h/mL)
Give just the number in ng·h/mL; leave the unit off.

*Q* Which AUC value is on record for O=C(NC[C@H]1CN(c2ccc(N3CCOCC3=O)cc2)C(=O)O1)c1ccc(Cl)s1 ?
*A* 1640

====

procedure summary: MAGELLAN (Study 1): pharmacokinetics
Type: in vivo, human
settings: human, serum, oral, 10 mg, Day 1, overall; 10 mg; read-out: Cmax
measure: Cmax (ng/mL)
Give just the number in ng/mL; leave the unit off.

*Q* Which Cmax value is on record for O=C(NC[C@H]1CN(c2ccc(N3CCOCC3=O)cc2)C(=O)O1)c1ccc(Cl)s1 ?
*A* 176

====

procedure summary: MAGELLAN (Study 1): pharmacokinetics
Assay type: in vivo, human
settings: human, plasma, oral, 10 mg, Day 10, overall; 10 mg
measure: AUC (ng·h/mL)
Give just the number in ng·h/mL; leave the unit off.

*Q* Which AUC value is on record for O=C(NC[C@H]1CN(c2ccc(N3CCOCC3=O)cc2)C(=O)O1)c1ccc(Cl)s1 ?
*A* 1360

====

procedure summary: MAGELLAN (Study 1): pharmacokinetics
Assay type: in vivo, human
settings: human, plasma, oral, 10 mg, Day 10; subjects with acute infectious disease
measure: AUC (ng·h/mL)
Give just the number in ng·h/mL; leave the unit off.

*Q* Which AUC value is on record for O=C(NC[C@H]1CN(c2ccc(N3CCOCC3=O)cc2)C(=O)O1)c1ccc(Cl)s1 [Rivaroxaban] ?
*A* 1190

====

procedure summary: MAGELLAN (Study 1): pharmacokinetics
Assay type: in vivo, human
settings: human, serum, oral, 10 mg, Day 10; subjects with CHF NYHA IV; read-out: Cmax
From the text: A subset of approximately 125 subjects was to be stratified into 5 groups (of 25 subjects) based on the major diagnoses. […]
measure: Cmax

*Q* Which Cmax value is on record for O=C(NC[C@H]1CN(c2ccc(N3CCOCC3=O)cc2)C(=O)O1)c1ccc(Cl)s1 ?
*A* 192 ng/mL
